Value source: the supplement of paper PMC9170038

Test system: MS2 coat protein
Test: apparent KD of MS2 coat protein; higher = weaker reporter binding
Conditions: Eterna round: R107; input ligand: theophylline 20 uM
READOUT TYPE: apparent KD of MS2 coat protein (nM)
Give the number; nM is assumed, so skip it.

Recorded results for 8 sequences are shown here.
{"PRIMARY SEQUENCE": "UUAAUCAUGGAUGAAAACAUUUAUGCAGAAGGAGCGUGAUAAAACACAGGUAGGUCGCUGAAGGGAACAUGAGGAUCACCCAUGU [AstrosSSArgA#17]", "EXPERIMENTAL TARGET": "MS2 coat protein", "apparent KD of MS2 coat protein (nM)": 74.5}
{"PRIMARY SEQUENCE": "ACCCUAGCGAUCGCUCGCUAGGGUGCGGAUACCAGCGAGGUCCAUCGCCCUUGGCAGCCGAACAUGAGGAUCACCCAUGUCGGUA [#1 Same State - Theophylline A Attempt #19 (HarryS)]", "EXPERIMENTAL TARGET": "MS2 coat protein", "apparent KD of MS2 coat protein (nM)": 11.6}
{"PRIMARY SEQUENCE": "CUUCUGAAAGCAAUGGGAUCUGUUAUUGAUACCAGCAUCUGAUUUUGCCCUUGGCAGCAAGAAACAUGAGGAUCACCCAUGUGGC [theeternabot_exclusion_MS2_Theo_A_19]", "EXPERIMENTAL TARGET": "MS2 coat protein", "apparent KD of MS2 coat protein (nM)": 23.1}
{"PRIMARY SEQUENCE": "GGAGUAGAUGCGGCCGCCACUUUCUCAAGACACUACAUGAGGAUCACCCAUGUCCAUUCUACACUAAGGACCGGGCAUCCCAUGG [Alaa]", "EXPERIMENTAL TARGET": "MS2 coat protein", "apparent KD of MS2 coat protein (nM)": 182}
{"PRIMARY SEQUENCE": "UCGUGUGUUUCGGAUACCAGUGAAAUCGAUACAUGAGGAUCACCCAUGUGAGAGGAUGUACACCCUUGGCAGCUGUCUGUAGCGG [asczmullin]", "EXPERIMENTAL TARGET": "MS2 coat protein", "apparent KD of MS2 coat protein (nM)": 38}
{"PRIMARY SEQUENCE": "ACGACGCAUAGUGAUACCAGUAGAACAUGAGGAUCACCCAUGUCUGUGACGCACCACCUCUGCCCUUGGCAGCACUAUGCGUCAG [SSTheo B #8]", "EXPERIMENTAL TARGET": "MS2 coat protein", "apparent KD of MS2 coat protein (nM)": 30.3}
{"PRIMARY SEQUENCE": "AUGUCAUUGGUGUAGCUGUGAAAUGGCGAUACCAGCGUGGAAACACGCCCUUGGCAGCGCCAAAACAUGAGGAUCACCCAUGUUA [Pardubice]", "EXPERIMENTAL TARGET": "MS2 coat protein", "apparent KD of MS2 coat protein (nM)": 135}
{"PRIMARY SEQUENCE": "ACAUGAGGAUCACCCAUGUACAUAAGGGAAGGAGCGCGGUGAAACGCAGGUAGGUCGCCCAUAAUAUCUAACAUUAAAUUCAUGU [LeftA3]", "EXPERIMENTAL TARGET": "MS2 coat protein", "apparent KD of MS2 coat protein (nM)": 27.9}

Would you mind telling me what apparent KD of MS2 coat protein value was observed for GCACCAGGUACGGAUACCAGACAUUGCCAAUUGGGUGAACAUGAGGAUCACCCAUGUUAAGUCCCUUGGCAGCCGUACCUGGUGC [ETB NP+V+V2 #6 Same Structure] ?
17.7

Would you mind telling me what apparent KD of MS2 coat protein value was observed for UAUUUGGUGCGCGAGCGCUGGAUAAUUGAUACCAGUGAAGAAGAGCGCCCUUGGCAGCGAAUCCUAACAUGAGGAUCACCCAUGU [5.R] ?
54.1

Would you mind telling me what apparent KD of MS2 coat protein value was observed for UAUAAUAACUCGGCCGCCACUGGCACAUGAGGAUCACCCAUGUCUAUAUAUAAUAUAUAGUUGCACAGGACCGGGAGAUAUAUAU [Exclusion - Tryptophan B] ?
12.5

Would you mind telling me what apparent KD of MS2 coat protein value was observed for AUAAUAAUCAUGGGUGAAGGUCCUCGCAAACGAGGACCGGUACGGCCGCCACUCGAACAUGAGGAUCACCCAUGUGUGAGGACCU [M' - T' - T - MS2 - T'' Design 2] ?
59.7

Would you mind telling me what apparent KD of MS2 coat protein value was observed for CAAUACGUAACUGAUACCAGUGUACUGACAUGAGGAUCACCCAUGUUGGGUUUUGUUGUACACCCUUGGCAGCAGAAUCGUAUUG [AstrosExyTheB#11] ?
79.4

Would you mind telling me what apparent KD of MS2 coat protein value was observed for GGAGUAGGAAACUAUUCCAAUCCUCGUGAACGAGGACCGGUACGGCCGCCACUCGAUAAUUAAUAACAUGAGGAUCACCCAUGUA [Ex Tryptophan A 21] ?
80.4

Would you mind telling me what apparent KD of MS2 coat protein value was observed for GGGUACAUCGCGGCCGCCACUCGUGUAAAUACAUGAGGAUCACCCAUGUCGAUGGAGACAUCGGCGAGGACCGGGUGAUGUACCG ?
54.2

Would you mind telling me what apparent KD of MS2 coat protein value was observed for ACGAUAGCACCUGAGGAUCACCCAGGUGAUACCAGCCUGGAAACAGGCCCUUGGCAGCACCUAAAAUAAAGGUAACUAUCGAAUA [TheoAX6 #MicroSwitchBubble #AlternativeMS2] ?
251

Would you mind telling me what apparent KD of MS2 coat protein value was observed for UAUCGUCAGACGGCCGCCACUAGAACAUGAGGAUCACCCAUGUAAGUGGCUGGUUCAUGGGUGUCUAGGACCGGGUCUGACGAAU [(Trp1)-(Ms2)-(T)'-(M)'-(Trp2)_Design20] ?
21.2

Would you mind telling me what apparent KD of MS2 coat protein value was observed for UGUAUGGACUGAAGGAGCGCCUCAAAUAACAUGAGGAUCACCCAUGUGGACAAAGUCCUUGGGCAGGUAGGUCGCAGUCCAUACU [ArgBX 5 #StaticStem #MS2Late] ?
82.9

Would you mind telling me what apparent KD of MS2 coat protein value was observed for GACCCAUGAGUUGUAAAAGCUCAUGGGUCGCGAGGACCGGUACGGCCGCCACUCGGCUGUACAUGAGGAUCACCCAUGUCAGGGU [#1 Same State - Tryptophan A Attempt #27 (HarryS)] ?
568

Would you mind telling me what apparent KD of MS2 coat protein value was observed for UGUAUGGACUGAAGGAGCGGAAAAUAACCAUGAGGAUCACCCAUGGAAUAGGCGAAAGCCAUCCAGGUAGGUCGCAGUCCAUACU ?
32.4

Would you mind telling me what apparent KD of MS2 coat protein value was observed for GUCUGAGUCUGAAGGAGCGACAUGAGGAUCACCCAUGUCUCCCGUUAUGGGAGUUCCUUAGGUCAGGUAGGUCGCAGACUCAGAC [#1 Exclusion - Arginine B Attempt #26 (Inspired by Omei)] ?
139

Would you mind telling me what apparent KD of MS2 coat protein value was observed for AUAAUAUAGACGGCCGCCACUAUAAACAUGAGGAACAUGAGGAUCACCCAUGUAUGAGGAUCACCUAGGACCGGGUCAUAUAUUA [AstrosExyTryB#2] ?
79.8

Would you mind telling me what apparent KD of MS2 coat protein value was observed for UUUUAGCAUCGAAGGAGCGCUGGUAGGUGACACAUGAGGAUCACCCAUGUGCUCCUUGCCGAGCAGGUAGGUCGCGAUGCUAUUU [SSAB NP+V+V2 #8] ?
62.9

* * *

Listed next: entries and their corresponding apparent KD of MS2 coat protein.
Test system: MS2 coat protein
Test: apparent KD of MS2 coat protein; designed switch direction (-1 OFF switch, 1 ON switch): -1; higher = weaker reporter binding
Details: input ligand: none
Give the number; µM is assumed, so skip it.

{"PRIMARY SEQUENCE": "UUCCUCACUUCUUUGUCUCACAUGAGGAUCACCCAUGUAAUAUAGGAUAUGCUUAGUAUUUUUAUGCAGAAGGAUAUUAGUUUU [JR_ExcNG3_Sub085] (Eterna round: R96, puzzle: Exclusion NG 3)", "apparent KD of MS2 coat protein, µM": 0.0398}

Would you mind telling me what apparent KD of MS2 coat protein value was observed for GUGUGACAUGAGGAUCACCCAUGUGAGGAUAUCAUGCUUCGUAGUAAACUACGAAGUGUGAGAAGGCACAUAAC [Omei Ex1 E8] (Eterna round: R97, puzzle: Exclusion 1) ?
0.122

Would you mind telling me what apparent KD of MS2 coat protein value was observed for AUUAUAAAGGCAGGAUAUACAUGAGGAUCACCCAUGUAUAUCCGAUAAUAAUAUAAGUGCCUCAUGUAGAAGGGCCAUUAUAUA [Same State Mistake] (Eterna round: R96, puzzle: Exclusion NG 2) ?
0.0124

Would you mind telling me what apparent KD of MS2 coat protein value was observed for UUUUUAUAUGAAGGAUAUACUUAACAUGAGGAUCACCCAUGUGGUGUUGUGAGUGAGUGAGUUUAGUAGAAGGUCAAUUAUAUU [JMF's solution 13] (Eterna round: R96, puzzle: Exclusion NG 2) ?
0.35

Would you mind telling me what apparent KD of MS2 coat protein value was observed for CUGUAGCUAUGAGGAUAUGCCACAAAAGUAGUUGCAGAAGGCAUCCCUACCCAGUAAGAACAUGAGGAUCACCCAUGUGAUCUG [Eternabot solution 43] (Eterna round: R96, puzzle: Exclusion NG 1) ?
0.0634

Would you mind telling me what apparent KD of MS2 coat protein value was observed for GGCAUGCAAGGAUAUACUUACAGUGAUGUUCGAAUAAGUCUACUUGAGGAUCACCCAAGUAGAAGGUGCAUGCC [Exclusion 2 (Mod3.1 JL EX2 4.74 Vienna UCT mod of Mamaed)] (Eterna round: R97, puzzle: Exclusion 2) ?
0.016

Would you mind telling me what apparent KD of MS2 coat protein value was observed for GCGUUCUGAGGAUAUACAUGAGGAUCACCCAUGUUGAGAAGAAAGUAUAAAAGAUUGUGUAGAAGGCAGAGUGC [JR_Ex3_Sub070] (Eterna round: R97, puzzle: Exclusion 3) ?
0.0384

Would you mind telling me what apparent KD of MS2 coat protein value was observed for UGCAGACGAGGAUAUAGAUUUAGAUACAUGAGGAUCACCCAUGUAUAUAUGUAUUUAGAUUUAGAAGGCGUCUGCU [E5/15-A4] (Eterna round: R97, puzzle: Exclusion 5) ?
0.283

Would you mind telling me what apparent KD of MS2 coat protein value was observed for AAAUGUUGUAAGGAUAUUGAAUAAGAAAACUUACGAGAAGGUGCGACAUGAGGAUCACCCAUGUUCCCAAAGGG [Alacar 2] (Eterna round: R97, puzzle: Exclusion 6) ?
0.0304
